Hi there, I'd appreciate the recorded Emax for every entry that follows.
- target.desc: human ΔF508-CFTR (Homo sapiens, UniProt P13569, DEL508-508)
- Construct: expressed in transfected cells
- Sequence (P13569 with tags, fused parts or gaps DEL508-508): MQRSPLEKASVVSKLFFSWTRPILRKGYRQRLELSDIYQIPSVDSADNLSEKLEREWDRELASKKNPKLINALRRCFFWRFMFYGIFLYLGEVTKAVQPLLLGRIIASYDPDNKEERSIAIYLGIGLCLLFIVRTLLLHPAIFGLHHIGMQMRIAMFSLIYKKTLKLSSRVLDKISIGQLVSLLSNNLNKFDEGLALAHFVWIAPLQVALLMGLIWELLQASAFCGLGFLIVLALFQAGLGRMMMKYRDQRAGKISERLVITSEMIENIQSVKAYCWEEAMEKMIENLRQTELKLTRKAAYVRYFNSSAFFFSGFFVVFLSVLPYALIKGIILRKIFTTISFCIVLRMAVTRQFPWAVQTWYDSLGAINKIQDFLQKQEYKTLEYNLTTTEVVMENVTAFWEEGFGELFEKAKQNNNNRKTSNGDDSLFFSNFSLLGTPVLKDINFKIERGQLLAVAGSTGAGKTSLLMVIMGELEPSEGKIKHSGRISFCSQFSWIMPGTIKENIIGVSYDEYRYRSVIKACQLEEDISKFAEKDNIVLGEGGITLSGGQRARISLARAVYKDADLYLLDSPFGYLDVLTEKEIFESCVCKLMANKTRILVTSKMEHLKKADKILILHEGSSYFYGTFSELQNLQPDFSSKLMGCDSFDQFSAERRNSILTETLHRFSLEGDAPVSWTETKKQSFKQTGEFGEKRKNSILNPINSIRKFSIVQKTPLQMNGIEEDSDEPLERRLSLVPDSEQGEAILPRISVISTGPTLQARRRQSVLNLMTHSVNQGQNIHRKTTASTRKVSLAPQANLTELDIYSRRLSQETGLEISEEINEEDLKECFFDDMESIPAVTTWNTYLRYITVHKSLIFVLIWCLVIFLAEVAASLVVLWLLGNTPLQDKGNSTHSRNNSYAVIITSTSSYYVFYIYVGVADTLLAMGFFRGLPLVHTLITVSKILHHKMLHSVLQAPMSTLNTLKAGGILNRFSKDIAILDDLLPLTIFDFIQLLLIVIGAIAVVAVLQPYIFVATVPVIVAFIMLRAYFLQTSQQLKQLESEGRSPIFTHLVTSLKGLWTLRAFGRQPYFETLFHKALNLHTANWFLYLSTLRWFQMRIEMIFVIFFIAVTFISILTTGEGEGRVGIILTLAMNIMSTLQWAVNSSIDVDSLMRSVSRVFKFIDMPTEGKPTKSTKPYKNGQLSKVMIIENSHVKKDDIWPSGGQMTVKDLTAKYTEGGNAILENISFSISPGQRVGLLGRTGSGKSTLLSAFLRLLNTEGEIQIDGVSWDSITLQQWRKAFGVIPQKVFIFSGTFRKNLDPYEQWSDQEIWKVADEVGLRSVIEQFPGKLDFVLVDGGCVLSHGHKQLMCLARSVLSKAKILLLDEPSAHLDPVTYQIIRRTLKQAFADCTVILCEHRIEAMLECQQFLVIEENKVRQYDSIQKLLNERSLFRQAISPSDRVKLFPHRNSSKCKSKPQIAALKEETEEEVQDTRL
- test.summary: CFTR-YFP High Throughput Assay (HTS YFP flux assay, corrector / potentiator protocols)
- Format: cell-based
- condition.info: FRT cells stably expressing human ΔF508-CFTR and YFP-H148Q/I152L; normalized to positive control; read-out: Emax (% Efficacy, EMax normalized to the positive control)
- Description: Assays for Detecting and Measuring the Effect of Compounds on dF508-CFTR Channels CFRT-YFP High Throughput Assay: Corrector Assay: The following protocol is designed to selectively screen small molecule compounds for F508del CFTR corrector activities in the HTS YFP flux assay. In this protocol, the cells are incubated with testing compounds for 24 hours, washed with PBS, stimulated with forskolin and a standard potentiator, and read on a 384-well HTS plate reader, such as the Hamamatsu FDDD-6000. […]

// each molecule listed below needs its Emax
1. O=S(=O)(c1ccccc1)c1ccc2nnc(NC3Cc4ccccc4C3)n2c1
2. CCN(CC)S(=O)(=O)c1ccc2nnc(NCCc3ccccc3)n2c1
3. CCN(CC)S(=O)(=O)c1ccc2nnc(NCc3ccc4c(c3)CCO4)n2c1
4. CCN(CC)S(=O)(=O)c1ccc2nnc(NCc3ccc(C(F)(F)F)cc3)n2c1
5. CCN(CC)S(=O)(=O)c1ccc2nnc(NCC(C)(C)O)n2c1

Solution:
> 80%
> 80%
> 80%
> 80%
40 to 80%

====

- target.desc: human ΔF508-CFTR (Homo sapiens, UniProt P13569, DEL508-508)
- Construct: expressed in transfected cells
- test.summary: CFTR-YFP High Throughput Assay (HTS YFP flux assay, corrector / potentiator protocols)
- Type: cell-based
- condition.info: FRT cells stably expressing human ΔF508-CFTR and YFP-H148Q/I152L; normalized to positive control; read-out: Emax (% Efficacy, EMax normalized to the positive control)
Hi there, I'd appreciate the recorded Emax for every entry that follows.

Answered examples (5):
molecule	observed
Cc1ccc([C@@H](C)Nc2nc3ccc(S(=O)(=O)c4ccccc4)cn3n2)cc1	40 to 80%
CCN(CC)S(=O)(=O)c1ccc2nnc(N[C@@H]3CCc4ccccc43)n2c1	40 to 80%
CCN(CC)S(=O)(=O)c1ccc2nnc(NCc3ccccc3F)n2c1	> 80%
O=S(=O)(c1ccccc1)c1ccc2nc(NC3Cc4ccccc4C3)nn2c1	> 80%
O=S(=O)(c1ccccc1)c1ccc2nnc(NC[C@H](O)C3CCCCC3)n2c1	> 80%

// each molecule listed below needs its Emax
1. CCN(CC)S(=O)(=O)c1ccc2nnc(NC3CCCC3)n2c1
2. CCOC(=O)OC(CNc1nnc2ccc(S(=O)(=O)c3ccccc3)cn12)C1CCCCC1 (stereo not drawn)
3. O=S(=O)(c1ccc2nc(NCc3ccc4c(c3)OCO4)nn2c1)N1CCCCC1
4. CCN(CC)S(=O)(=O)c1ccc2nnc(NCc3ccc(-c4ccccc4)cc3)n2c1
5. CCN(CC)S(=O)(=O)c1ccc2nnc(NCc3ccccc3C)n2c1

Solution:
1. > 80%
2. > 80%
3. > 80%
4. > 80%
5. 40 to 80%

// each molecule listed below needs its Emax
1. O=S(=O)(c1ccccc1)c1ccc2nc(NCC3CC3)nn2c1
2. CCN(CC)S(=O)(=O)c1ccc2nnc(N[C@H](C)c3ccccc3)n2c1
3. CCN(CC)S(=O)(=O)c1ccc2nnc(NCC3CCCCC3)n2c1
4. CC(C)N(C(C)C)S(=O)(=O)c1ccc2nnc(N[C@H](C)c3ccccc3)n2c1
5. CCN(CC)S(=O)(=O)c1ccc2nnc(NCC(C)(C)C)n2c1
6. CCN(CC)S(=O)(=O)c1ccc2nnc(NC3CCCCC3)n2c1
7. CCN(CC)S(=O)(=O)c1ccc2nnc(NCc3ccc(N(C)C)cc3)n2c1

Solution:
1. > 80%
2. > 80%
3. > 80%
4. 40 to 80%
5. 40 to 80%
6. > 80%
7. > 80%

Exercise: Give the measured Emax of `CCN(CC)S(=O)(=O)c1ccc2nnc(N[C@H](C)c3ccc(F)cc3)n2c1` .
Solution: > 80%

====

- target.desc: human ΔF508-CFTR (Homo sapiens, UniProt P13569, DEL508-508)
- test.summary: CFTR-YFP High Throughput Assay (HTS YFP flux assay, corrector / potentiator protocols)
- condition.info: FRT cells stably expressing human ΔF508-CFTR and YFP-H148Q/I152L
- Protocol: Assays for Detecting and Measuring the Effect of Compounds on dF508-CFTR Channels CFRT-YFP High Throughput Assay: Corrector Assay: The following protocol is designed to selectively screen small molecule compounds for F508del CFTR corrector activities in the HTS YFP flux assay. In this protocol, the cells are incubated with testing compounds for 24 hours, washed with PBS, stimulated with forskolin and a standard potentiator, and read on a 384-well HTS plate reader, such as the Hamamatsu FDDD-6000. […]
metric: EC50

Answered examples (3):
molecule	target.desc	metric	observed
CCN(CC)S(=O)(=O)c1ccc2nnc(N[C@H](C)C3CCCCC3)n2c1	human ΔF508-CFTR (Homo sapiens, UniProt P13569, DEL508-508)	EC50	< 1 µM
O=S(=O)(c1ccccc1)c1ccc2nnc(NCC(O)COc3ccccc3)n2c1 (centres unmarked)	human ΔF508-CFTR (Homo sapiens, UniProt P13569, DEL508-508)	EC50	< 1 µM
CCOC(=O)OC(CNc1nnc2ccc(S(=O)(=O)c3ccccc3)cn12)C1CCCCC1 (centres unmarked)	human ΔF508-CFTR (Homo sapiens, UniProt P13569, DEL508-508)	EC50	< 1 µM

// each molecule listed below needs its EC50
1. CCN(CC)S(=O)(=O)c1ccc2nnc(NC(C)CC(C)C)n2c1 (centres unmarked)
2. CCN(CC)S(=O)(=O)c1ccc2nnc(NC(C)C(C)C)n2c1 (centres unmarked)

Solution:
1. < 1 µM
2. < 1 µM

====

Hi there, I'd appreciate the recorded EC50 for every entry that follows.
- target.desc: human ΔF508-CFTR (Homo sapiens, UniProt P13569, DEL508-508)
- test.summary: CFTR-YFP High Throughput Assay (HTS YFP flux assay, corrector / potentiator protocols)
- condition.info: FRT cells stably expressing human ΔF508-CFTR and YFP-H148Q/I152L
- Description: Assays for Detecting and Measuring the Effect of Compounds on dF508-CFTR Channels CFRT-YFP High Throughput Assay: Corrector Assay: The following protocol is designed to selectively screen small molecule compounds for F508del CFTR corrector activities in the HTS YFP flux assay. In this protocol, the cells are incubated with testing compounds for 24 hours, washed with PBS, stimulated with forskolin and a standard potentiator, and read on a 384-well HTS plate reader, such as the Hamamatsu FDDD-6000. […]

Answered examples (5):
compound	observed
O=S(=O)(c1ccccc1)c1ccc2nc(NC3Cc4ccccc4C3)nn2c1 [Example 80]	< 1000 nM
O=C(c1ccc(CNc2nc3ccc(S(=O)(=O)c4ccccc4)cn3n2)cc1)N1CCC1 [Example 91]	< 1000 nM
CCN(CC)S(=O)(=O)c1ccc2nnc(NCC3CCCCC3)n2c1 [Example 52]	1000 to 10000 nM
CCN(CC)S(=O)(=O)c1ccc2nnc(NCc3ccc(C(F)(F)F)cc3)n2c1 [Example 48]	< 1000 nM
CC(C)N(C(C)C)S(=O)(=O)c1ccc2nnc(N[C@H](C)c3ccccc3)n2c1 [Example 47]	< 1000 nM

// each compound listed below needs its EC50
1. CCN(CC)S(=O)(=O)c1ccc2nnc(NCC(C)C)n2c1 [Example 17]
2. CCN(CC)S(=O)(=O)c1ccc2nnc(NC(C)c3ccc(OC)cc3)n2c1 (stereo not drawn) [Example 28]

Solution:
["< 1000 nM", "< 1000 nM"]

// each compound listed below needs its EC50
1. Cc1ccc([C@@H](C)Nc2nc3ccc(S(=O)(=O)c4ccccc4)cn3n2)cc1 [Example 90]
2. CCN(CC)S(=O)(=O)c1ccc2nnc(N[C@H](C)c3ccc(F)cc3)n2c1 [Example 41]

Solution:
["1000 to 10000 nM", "< 1000 nM"]

// each compound listed below needs its EC50
1. CCC(Nc1nnc2ccc(S(=O)(=O)N(CC)CC)cn12)c1ccccc1 (stereo not drawn) [Example 29]
2. CCN(CC)S(=O)(=O)c1ccc2nnc(NCCc3ccccc3)n2c1 [Example 25]
3. O=S(=O)(c1ccccc1)c1ccc2nnc(NC[C@H](O)c3ccccc3)n2c1 [Example 70]
4. CCN(CC)S(=O)(=O)c1ccc2nnc(NC[C@H]3CCCO3)n2c1 [Example 23]
5. O=S(=O)(c1ccccc1)c1ccc2nc(NC[C@H](O)c3ccccc3)nn2c1 [Example 83]
6. CCN(CC)S(=O)(=O)c1ccc2nnc(N[C@@H]3CCc4ccccc43)n2c1 [Example 46]

Solution:
< 1000 nM
< 1000 nM
< 1000 nM
> 10000 nM
< 1000 nM
< 1000 nM

// each compound listed below needs its EC50
1. O=S(=O)(c1ccccc1)c1ccc2nc(NC[C@@H](O)c3ccccc3)nn2c1 [Example 85]
2. O=S(=O)(c1ccccc1)c1ccc2nc(NCC(O)C3CCCCC3)nn2c1 (stereo not drawn) [Example 84]

Solution:
< 1000 nM
1000 to 10000 nM

// each compound listed below needs its EC50
1. CCN(CC)S(=O)(=O)c1ccc2nnc(NCc3ccc(OC(C)C)cc3)n2c1 [Example 36]
2. CCN(CC)S(=O)(=O)c1ccc2nnc(NCC3CCCO3)n2c1 (stereo not drawn) [Example 14]

Solution:
< 1000 nM
> 10000 nM

// each compound listed below needs its EC50
1. O=S(=O)(c1ccccc1)c1ccc2nnc(NCCC3CCCCC3)n2c1 [Example 76]
2. CCN(CC)S(=O)(=O)c1ccc2nnc(NC3CCc4ccccc4C3)n2c1 (stereo not drawn) [Example 32]
3. CCN(CC)S(=O)(=O)c1ccc2nnc(NCCC(C)(C)C)n2c1 [Example 45]
4. CCN(CC)S(=O)(=O)c1ccc2nnc(NCCC(C)C)n2c1 [Example 19]
5. CCN(CC)S(=O)(=O)c1ccc2nnc(NC3CCCc4ccccc43)n2c1 (stereo not drawn) [Example 2]
6. CCN(CC)S(=O)(=O)c1ccc2nnc(NC(C)c3ccc(C)cc3)n2c1 (stereo not drawn) [Example 27]

Solution:
1. 1000 to 10000 nM
2. 1000 to 10000 nM
3. < 1000 nM
4. < 1000 nM
5. < 1000 nM
6. < 1000 nM

// each compound listed below needs its EC50
1. O=S(=O)(c1ccccc1)c1ccc2nc(NCc3cccc(C(F)(F)F)c3)nn2c1 [Example 82]
2. CCN(CC)S(=O)(=O)c1ccc2nnc(N[C@@H](C)c3ccc(C)cc3)n2c1 [Example 38]
3. CN1CCC(c2ccc(CNc3nc4ccc(S(=O)(=O)c5ccccc5)cn4n3)cc2)CC1 [Example 93]

Solution:
["< 1000 nM", "< 1000 nM", "< 1000 nM"]

// each compound listed below needs its EC50
1. CCN(CC)S(=O)(=O)c1ccc2nnc(NC(=O)c3ccccc3)n2c1 [Example 12]
2. CCN(CC)S(=O)(=O)c1ccc2nnc(NCC(O)COC)n2c1 (stereo not drawn) [Example 24]
3. CCN(CC)S(=O)(=O)c1ccc2nnc(NCC(C)(C)C)n2c1 [Example 7]
4. CCN(CC)S(=O)(=O)c1ccc2nnc(N3CCN(Cc4ccccc4)CC3)n2c1 [Example 6]
5. CCN(CC)S(=O)(=O)c1ccc2nnc(NCc3ccc(OC)cc3)n2c1 [Example 16]
6. CCN(CC)S(=O)(=O)c1ccc2nnc(NCc3cccnc3)n2c1 [Example 15]
7. CCN(CC)S(=O)(=O)c1ccc2nnc(N(C)Cc3ccccc3)n2c1 [Example 3]
8. O=S(=O)(c1ccccc1)c1ccc2nnc(NCC(O)c3ccc(F)cc3)n2c1 (stereo not drawn) [Example 75]

Solution:
1. 1000 to 10000 nM
2. 1000 to 10000 nM
3. < 1000 nM
4. 1000 to 10000 nM
5. < 1000 nM
6. > 10000 nM
7. < 1000 nM
8. < 1000 nM
